test system: MS2 coat protein; assay: apparent KD of MS2 coat protein; designed switch direction (-1 OFF switch, 1 ON switch): -1; higher = weaker reporter binding; settings: input ligand: none
// reported apparent KD of MS2 coat protein for each item listed

| RESIDUE CODES | UOM | apparent KD of MS2 coat protein |
| --- | --- | --- |
| AUUUAACAUGAGGAUCACCCAUGUGAGGAUAUGCGAGUGUAGACUUCGGUCUGAUAGAGCAGAAGGCGCAGAUA [EX1 #9] (Eterna round: R97, puzzle: Exclusion 1) | µM | 0.045 |
| CUCCCACAUGAGGAUCACCCAUGUGAGGAUAUGGAGCGCGACCGCGCGGUCGCGUACACCAGAAGGCGCAUGAU [1st #81] (Eterna round: R97, puzzle: Exclusion 1) | µM | 0.0211 |
| GCAAGCUUAAUCAGUAUGAACAUGAGGAUCACCCAUGUAUAAGGUAAUCCUUUUGGGCCCUUUAUUACUCGUCUUAU [JR_STOV1_Sub028] (Eterna round: R97, puzzle: Sensor, turn-off variant 1) | µM | 0.405 |
| GCGGGCCCGGGAGGAUAUACAUGAGGAUCACCCAUGUGGGCCCGGGCCCGCGGGCCCGGGCCCGUGUAGAAGGCCCGGGCCCGC [-64.9, -63.3 kcal, A 14%] (Eterna round: R96, puzzle: Exclusion NG 2) | µM | 0.0142 |
| CACAAUGACGUCAGGAUAUGUAAACAGCGAAGUUUGUAGAAGGGACAUGAGGAUCACCCAUGUAUAACUGGGAG [Eternabot (L2) Solution 27] (Eterna round: R97, puzzle: Brourd's mod of Exclusion 4) | µM | 0.149 |
| AUCAGCUCGUGAGGAUAUACAUGAGGAUCACCCAUGUGGUCAUUAGCAGCUUCGGCUGCAUUAAUGUAGAAGGCACGAGCUGAU [ENG2/8-A2] (Eterna round: R96, puzzle: Exclusion NG 2) | µM | 0.829 |
| CUAGGUCGAGGAUAUACAUGAGGAUCACCCAUGUCGGUUCCAUGAGAGCUAGACACUAGUAGAAGGCGGUAGGC [Eternabot (L2) Solution 60] (Eterna round: R97, puzzle: Exclusion 3) | µM | 0.0278 |
| CGGCAAUCCUAGGAUAUGCUAGACGAAAGUCUAGCAGAAGGAGGAACAUGAGGAUCACCCAUGUGUCCUAGCCG [Eli x6 4.02] (Eterna round: R97, puzzle: Exclusion 6) | µM | 0.0202 |
| GCAUUUUGGUCGUCUUAUAACAUGAGGAUCACCCAUGUGUUGAGCCCAACUUAUUGUACUCAUGCUAUGGCCUGAUG [Eternabot (L2) Solution 27] (Eterna round: R97, puzzle: Sensor, turn-off variant 1) | µM | 0.0842 |
